- Tested on: Calu-3
- experiment: cell viability relative to DMSO; higher = less toxic
- condition.parameters: 72 h; 1 nM
Parameter cell viability: see the listing below.
Give just the number in %; leave the unit off.

Field: example entries. Status: answers known.
{"compound": "CN1[C@@H]2CC[C@H]1C[C@@H](OC(=O)c1c[nH]c3ccccc13)C2", "numeric.readout": 100}
{"compound": "NS(=O)(=O)c1ccc(NC(=O)Nc2ccc(F)cc2)cc1", "numeric.readout": 112}
{"compound": "O=P(O)(O)C(Cl)(Cl)P(=O)(O)O", "numeric.readout": 94.3}
{"compound": "COc1cccc(Nc2ncnn3ccc(CN4CC[C@@H](N)[C@H](O)C4)c23)c1", "numeric.readout": 103}
{"compound": "O=[N+]([O-])C(Br)(CO)CO", "numeric.readout": 110}
{"compound": "NCC(CC(=O)O)c1ccccc1 (stereo unspecified)", "numeric.readout": 95.4}

## Task Which value of cell viability has been reported for O=C(O)CC[C@H]1CC[C@@](c2cc(F)ccc2F)(S(=O)(=O)c2ccc(Cl)cc2)CC1 in the records?
## Result 96.3

## Task Which value of cell viability has been reported for CN(C)CCN1C(=O)c2cccc3cc(N)cc(c23)C1=O [amonafide] in the records?
## Result 94.8

## Task Which value of cell viability has been reported for CCOC(=O)C1=C(COCCN)NC(C)=C(C(=O)OC)C1c1ccccc1Cl (stereo unspecified) in the records?
## Result 93.6

## Task Which value of cell viability has been reported for CC(C)(C)NCC(O)c1ccccc1Cl (stereo unspecified) in the records?
## Result 94.6

## Task Which value of cell viability has been reported for COc1ccc2cccc(N3CCN(CCNC(=O)c4ccc(F)cc4)CC3)c2c1 in the records?
## Result 96.6

## Task Which value of cell viability has been reported for CCOc1cc(C(C)(C)C)ccc1C1=N[C@@](C)(c2ccc(Cl)cc2)[C@@](C)(c2ccc(Cl)cc2)N1C(=O)N1CCN(CCCS(C)(=O)=O)CC1 in the records?
## Result 98

## Task Which value of cell viability has been reported for CCc1cccc(CC)c1NC(=O)N1Cc2[nH]nc(NC(=O)c3ccc(N4CCN(C)CC4)cc3)c2C1 in the records?
## Result 99.1

## Task Which value of cell viability has been reported for N#Cc1cccc(C(=O)Nc2cc(-c3ccccc3)nn2-c2ccccc2)c1 in the records?
## Result 101

## Task Which value of cell viability has been reported for O=C(NCC(=O)N1CCCC1)Nc1ccc2cnccc2c1 in the records?
## Result 94.2

## Task Which value of cell viability has been reported for OC(CCCN1CCN(c2ncc(F)cn2)CC1)c1ccc(F)cc1 (stereo unspecified) in the records?
## Result 107

## Task Which value of cell viability has been reported for Cc1cc(C)c(S(=O)(=O)n2cc(C)cc2C)c(C)c1 in the records?
## Result 93.7

## Task Which value of cell viability has been reported for O=C(NCCCN1CCCCCC1)C(c1ccccc1)C1CCCCC1 (stereo unspecified) in the records?
## Result 111
